# target_entity: PRAS40 (Homo sapiens)
# Construct: gene AKT1S1; His-tagged, purchased from Genscript (Nanjing); UniProt Q96B36 (human) given only for the docking receptor
# protocol_description: isothermal titration calorimetry
# Assay type: binding
# measurement_conditions: read-out: Kd
pKd: −log10 of the molar value.
measured_parameter: pKd

a: c1ccc2[nH]ccc2c1 [indole]
b: COc1cc2c(cc1OC)-c1cc3ccc(OC)c(OC)c3c[n+]1CC2 [palmatine]
[Q] Between a and b , which one has the lower reported pKd value? Return value: the label identifying the chosen record.
[A] a

Where do the numbers come from? From paper PMC10839085.
